- Test system: Caco-2
- experiment description: CCK8 assay IC50
- Type: cell-based
- recorded conditions: Homo sapiens, Caco-2, colon cancer, 72 h
measured parameter: pIC50
Worth noting: pIC50 values are minus log10 of concentrations stated in mol/L.

Ask: Find the measured pIC50 of CN(C)Cc1c(C(=O)NCCOc2ccc(C(=O)NO)cc2)oc2ccccc12 [PCI-24781] and report it.
Reply: 5.70

====

- Tested on: PC-3
- experiment description: CCK8 assay IC50
- Assay type: cell-based
- recorded conditions: Homo sapiens, PC-3, prostatic cancer, 72 h
measured parameter: IC50 (nM)
Answer with a number only, understood to be in nM.

Ask: Find the measured IC50 of CN(C)Cc1c(C(=O)NCCOc2ccc(C(=O)NO)cc2)oc2ccccc12 [PCI-24781] and report it.
Reply: 1220

====

- System: T-47D
- experiment description: CCK8 assay IC50
- Type: cell-based
- recorded conditions: Homo sapiens, T47D, breast cancer, 72 h
measured parameter: pIC50
Worth noting: pIC50 values are minus log10 of concentrations stated in mol/L.

Ask: Find the measured pIC50 of `CN(C)Cc1c(C(=O)NCCOc2ccc(C(=O)NO)cc2)oc2ccccc12` and report it.
Reply: 5.58

====

- Test system: A549
- experiment description: CCK8 assay IC50
- Assay type: cell-based
- recorded conditions: Homo sapiens, A549, lung cancer, 72 h
measured parameter: pIC50
Worth noting: pIC50 values are minus log10 of concentrations stated in mol/L.

Ask: Look up A549 data: pIC50 of `CN(C)Cc1c(C(=O)NCCOc2ccc(C(=O)NO)cc2)oc2ccccc12` , then report it.
Reply: 5.94

====

- Test system: PC-3
- experiment description: CCK8 assay IC50
- Assay type: cell-based
- recorded conditions: PC-3, prostatic cancer, 72 h
- Procedure: Cell viability was then detected using a CCK8 assay (MedChemExpress, USA) according to the manufacturer's instructions. Statistical analyses of all data were performed using GraphPad Prism (version 8.0, Graph Pad Software Inc., San Diego, CA, USA). All the data were analyzed by Student's t-test or one-way ANOVA. […] Quantitative data are presented as the mean ± SD. […] IC50 was calculated using a four-parameter fit with variable slope in GraphPad Prism.
measured parameter: IC50 (nM)
Answer with a number only, understood to be in nM.

Ask: Find the measured IC50 of CC(/C=C/C(=O)NO)=C\[C@@H](C)C(=O)c1ccc(N(C)C)cc1 [TSA, trichostatin A] and report it.
Reply: 1310

====

- Tested on: SMMC-7721
- experiment description: CCK8 assay IC50
- Format: cell-based
- recorded conditions: Homo sapiens, SMMC-7721, liver cancer, 72 h
measured parameter: pIC50
Worth noting: pIC50 values are minus log10 of concentrations stated in mol/L.

Ask: Look up SMMC-7721 data: pIC50 of CN(C)Cc1c(C(=O)NCCOc2ccc(C(=O)NO)cc2)oc2ccccc12 [PCI-24781] , then report it.
Reply: 4.92

====

- Test system: MEF
- experiment description: CCK8 assay IC50
- Assay type: cell-based, mouse
- recorded conditions: Mus musculus, normal cells, 72 h
measured parameter: pIC50
Worth noting: pIC50 values are minus log10 of concentrations stated in mol/L.

Ask: Look up MEF data: pIC50 of `CN(C)Cc1c(C(=O)NCCOc2ccc(C(=O)NO)cc2)oc2ccccc12` , then report it.
Reply: 4.82
